Listed substances paired with reported % Inhibition
Test system: human Factor 7 mRNA
EXPERIMENTAL PROTOCOL: Antisense inhibition of human Factor 7 mRNA in HepB3 cells, 50 nM antisense oligonucleotide, lipofectin
Assay type: cell-based
CONDITION DETAILS: Table 6, 50 nM, lipofectin, approximately 24 hours
Strand notation (5' to 3'): a small letter for the sugar, then the base; units joined by * are phosphorothioate-linked, units joined directly phosphodiester-linked; [ ] holds rarer units or linkages, { } end groups; capitals alone tell only the bases. e = 2'-O-(2-methoxyethyl) (MOE); [5mC] = 5-methylcytosine; d = 2'-deoxy (DNA)
Numbers only; they are read as %.

Some solved entries appear below for comparison.
422267 (antisense eG*e[5mC]*dG*d[5mC]*dG*dG*dA*dA*dG*dA*dA*dG*dG*dG*dA*e[5mC]*eG*eG*eA*eA) [compound 422267] :: 38
422121 (antisense eG*e[5mC]*eG*e[5mC]*eG*dG*dA*dA*dG*dA*dA*dG*dG*dG*dA*e[5mC]*eG*eG*eA*eA) [compound 422121] :: 43
422198 (antisense eG*eT*eT*dA*d[5mC]*dT*dG*dA*dG*d[5mC]*dG*d[5mC]*dG*dG*dA*dA*dG*eA*eA*eG) [compound 422198] :: 50

Look up % Inhibition for this substance: 422263 (antisense eG*eG*dA*dA*dG*dA*dA*dG*dG*dG*dA*d[5mC]*dG*dG*dA*eA*eG*eG*eT*eG) [compound 422263]
19

Now consider 422118 (antisense e[5mC]*eG*eG*eA*eA*dG*dA*dA*dG*dG*dG*dA*d[5mC]*dG*dG*eA*eA*eG*eG*eT) [compound 422118] .
15

Let us now turn to 422274 (antisense eT*eT*dA*d[5mC]*dT*dG*dA*dG*d[5mC]*dG*d[5mC]*dG*dG*dA*dA*eG*eA*eA*eG*eG) [compound 422274]
24

Please give the result for 422186 (antisense eG*eG*eA*dA*dG*dA*dA*dG*dG*dG*dA*d[5mC]*dG*dG*dA*dA*dG*eG*eT*eG) [compound 422186] too.
14

How about this substance: 422190 (antisense eG*e[5mC]*eG*d[5mC]*dG*dG*dA*dA*dG*dA*dA*dG*dG*dG*dA*d[5mC]*dG*eG*eA*eA) [compound 422190]
12

// same read-out, input: 422264 (antisense e[5mC]*eG*dG*dA*dA*dG*dA*dA*dG*dG*dG*dA*d[5mC]*dG*dG*eA*eA*eG*eG*eT) [compound 422264]
24
